Cited source: patent US20220267441A1

- System Under Test: purified cynomolgus CD45 ectodomain (cynomolgus monkey)
- Sequence (chain, as listed by the source limits assumed, form in doubt): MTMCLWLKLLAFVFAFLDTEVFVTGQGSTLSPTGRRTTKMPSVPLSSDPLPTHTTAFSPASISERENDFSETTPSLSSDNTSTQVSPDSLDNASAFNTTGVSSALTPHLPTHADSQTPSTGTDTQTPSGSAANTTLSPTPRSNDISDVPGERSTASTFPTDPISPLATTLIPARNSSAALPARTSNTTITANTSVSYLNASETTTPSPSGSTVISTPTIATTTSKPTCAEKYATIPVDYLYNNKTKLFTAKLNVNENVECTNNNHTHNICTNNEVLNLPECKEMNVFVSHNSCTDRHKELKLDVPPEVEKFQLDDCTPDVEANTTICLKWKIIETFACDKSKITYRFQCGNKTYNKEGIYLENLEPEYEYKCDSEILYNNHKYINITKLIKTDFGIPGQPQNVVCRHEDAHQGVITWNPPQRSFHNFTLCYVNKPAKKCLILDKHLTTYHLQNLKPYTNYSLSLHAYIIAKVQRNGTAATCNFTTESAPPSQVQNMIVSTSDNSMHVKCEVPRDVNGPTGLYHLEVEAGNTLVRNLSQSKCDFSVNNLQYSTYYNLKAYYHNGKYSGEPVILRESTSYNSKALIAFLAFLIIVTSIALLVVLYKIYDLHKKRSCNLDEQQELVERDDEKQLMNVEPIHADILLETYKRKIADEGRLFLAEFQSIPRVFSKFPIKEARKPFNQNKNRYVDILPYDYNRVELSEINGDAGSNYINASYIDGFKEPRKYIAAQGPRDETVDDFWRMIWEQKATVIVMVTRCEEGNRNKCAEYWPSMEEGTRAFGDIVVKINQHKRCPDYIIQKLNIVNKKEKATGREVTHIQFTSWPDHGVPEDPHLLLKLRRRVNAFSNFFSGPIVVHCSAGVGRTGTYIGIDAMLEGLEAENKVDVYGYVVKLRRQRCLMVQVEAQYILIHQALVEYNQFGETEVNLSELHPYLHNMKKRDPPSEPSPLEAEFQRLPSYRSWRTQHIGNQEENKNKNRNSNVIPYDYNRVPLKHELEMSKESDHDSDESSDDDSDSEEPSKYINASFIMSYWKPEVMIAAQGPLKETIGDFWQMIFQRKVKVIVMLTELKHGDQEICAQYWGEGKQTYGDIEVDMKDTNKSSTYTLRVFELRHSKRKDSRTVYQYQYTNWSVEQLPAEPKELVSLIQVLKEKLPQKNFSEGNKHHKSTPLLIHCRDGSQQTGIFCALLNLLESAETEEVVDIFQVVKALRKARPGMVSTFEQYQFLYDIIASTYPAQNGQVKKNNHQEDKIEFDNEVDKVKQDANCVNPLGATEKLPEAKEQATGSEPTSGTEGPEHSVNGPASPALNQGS
- Assay Method Text: BLI (Octet Red96), IgG on anti-human Fc sensor, 50 nM CD45 ectodomain, 1:1 fit
Readout Name: koff (s⁻¹)
Quick note: give the figure in s⁻¹, leave out the unit.

-- ask Data request, read-out koff, for Antibody 2 (Ab2) (antibody, V domains shown) VH: EVQLVESGGGLVQPGGSLRLSCAASGFTFEAYSMNWVRQAPGKGLEWVSYISLSGATIHYADSVKGRFTISRDNAKNSLYLQMNSLRAEDTAVYYCARGGQYYYDSSDYGEVAFDIWGQGTMVTVSS VL: DIVMTQSPLSLPVTPGEPASISCRSSQSLVSNGYNYLDWYLQKPGQSPQLLIYFGSSRASGVPDRFSGSGSGTDFTLKISRVEAEDVGVYYCMQRRRTPWSFGGGTKVEIK
-- reply 0.000129

-- ask Data request, read-out koff, for Antibody 6 (Ab6) (antibody, V domains shown) VH: EVQLVESGGGLVQPGGSLRLSCAASGFTFEAYSMNWVRQAPGKGLEWVSYISLSGATIHYADSVKGRFTISRDNAKNSLYLQMNSLRAEDTAVYYCARGGQYYYTSSDYGEVAFDIWGQGTLVTVSS VL: DIVLTQSPLSLPVTPGEPASISCRSSQSLVSSGYNYLDWYLQKPGQSPQLLIYFGSSRASGVPDRFSGSGSGTDFTLKISRVEAEDVGVYYCMQRRRTPWSFGGGTKVEIK
-- reply 0.000154

-- ask Data request, read-out koff, for Antibody 3 (Ab3) (antibody, V domains shown) VH: QVQLVESGGGLVKPGGSLRLSCAASGFTFGGYSMNWVRQAPGKGLEWVSYISISGATITYADSVKGRFTISRDNAKNSLYLQMNSLRAEDTAVYYCARGGQYYYDSSDYGEVAFDIWGQGTMVTVSS VL: DIVMTQSPLSLPVTPGEPASISCRSSQSLVSNGYNYLDWYLQKPGQSPQLLIYFGSSRASGVPDRFSGSGSGTDFTLKISRVEAEDVGVYYCMQRRRTPPFTFGGGTKVEIK
-- reply 0.000192

-- ask Data request, read-out koff, for Antibody 5 (Ab5) (antibody, V domains shown) VH: EVQLVESGGGLVQPGGSLRLSCAASGFTFEAYSMNWVRQAPGKGLEWVSYISLSGATIHYADSVKGRFTISRDNAKNSLYLQMNSLRAEDTAVYYCARGGQYYYTSSDYGEVAFDIWGQGTMVTVSS VL: DIVMTQSPLSLPVTPGEPASISCRSSQSLVSSGYNYLDWYLQKPGQSPQLLIYFGSSRASGVPDRFSGSGSGTDFTLKISRVEAEDVGVYYCMQRRRTPWSFGGGTKVEIK
-- reply 0.000164
